Taken from patent US6512097.

- System tested: T1, c-erbB-2 ECD with a Ser-Gly-His6 C-terminal fusion (UniProt P04626 23-652)
- T1 construct: extracellular domain; Expressed from CHO cells, IMAC purified; coupled to a CM5 chip, coated on plates, or biotinylated with NHS-LC-biotin; also called c-erbB-2 extracellular domain; biotinylated c-erbB-2 ECD
- Assay remarks: SPR BIAcore
Attribute measured: koff (s⁻¹)
Give the number; s⁻¹ is assumed, so skip it.

| Binder | Display unit | koff |
| --- | --- | --- |
| C6MH3-B20 (scFv, C6ML3-9 sFv, VH CDR3 library B mutant) scFv: QVQLLQSGAELKKPGESLKISCKGSGYSFTSYWIAWVRQMPGKGLEYMGLIYPGDSDTKYSPSFQGQVTISVDKSVSTAYLQWSSLKPSDSAVYFCARHDVGYCSPARCAKWPEYFQHWGQGTLVTVSSGGGGSGGGGSGGGGSQSVLTQPPSVSAAPGQKVTISCSGSSSNIGNNYVSWYQQLPGTAPKLLIYGHTNRPAGVPDRFSGSKSGTSASLAISGFRSEDEADYYCASWDYTLSGWVFGGGTKLTVLG | s⁻¹ | 0.00016 |

What value of koff has been recorded for this entry: C6ML3-9 (scFv, template (wt) of the VH CDR3 libraries; also called C6ML3-9 (wt); C6ML-9) scFv: QVQLLQSGAELKKPGESLKISCKGSGYSFTSYWIAWVRQMPGKGLEYMGLIYPGDSDTKYSPSFQGQVTISVDKSVSTAYLQWSSLKPSDSAVYFCARHDVGYCSSSNCAKWPEYFQHWGQGTLVTVSSGGGGSGGGGSGGGGSQSVLTQPPSVSAAPGQKVTISCSGSSSNIGNNYVSWYQQLPGTAPKLLIYGHTNRPAGVPDRFSGSKSGTSASLAISGFRSEDEADYYCASWDYTLSGWVFGGGTKLTVLG 0.00076
